Origin of measurements: ChEMBL document CHEMBL4622845

- experimentalTarget: Phosphatidylinositol 3-kinase catalytic subunit type 3 (Homo sapiens, UniProt Q8NEB9)
- Sequence (Q8NEB9 whole entry): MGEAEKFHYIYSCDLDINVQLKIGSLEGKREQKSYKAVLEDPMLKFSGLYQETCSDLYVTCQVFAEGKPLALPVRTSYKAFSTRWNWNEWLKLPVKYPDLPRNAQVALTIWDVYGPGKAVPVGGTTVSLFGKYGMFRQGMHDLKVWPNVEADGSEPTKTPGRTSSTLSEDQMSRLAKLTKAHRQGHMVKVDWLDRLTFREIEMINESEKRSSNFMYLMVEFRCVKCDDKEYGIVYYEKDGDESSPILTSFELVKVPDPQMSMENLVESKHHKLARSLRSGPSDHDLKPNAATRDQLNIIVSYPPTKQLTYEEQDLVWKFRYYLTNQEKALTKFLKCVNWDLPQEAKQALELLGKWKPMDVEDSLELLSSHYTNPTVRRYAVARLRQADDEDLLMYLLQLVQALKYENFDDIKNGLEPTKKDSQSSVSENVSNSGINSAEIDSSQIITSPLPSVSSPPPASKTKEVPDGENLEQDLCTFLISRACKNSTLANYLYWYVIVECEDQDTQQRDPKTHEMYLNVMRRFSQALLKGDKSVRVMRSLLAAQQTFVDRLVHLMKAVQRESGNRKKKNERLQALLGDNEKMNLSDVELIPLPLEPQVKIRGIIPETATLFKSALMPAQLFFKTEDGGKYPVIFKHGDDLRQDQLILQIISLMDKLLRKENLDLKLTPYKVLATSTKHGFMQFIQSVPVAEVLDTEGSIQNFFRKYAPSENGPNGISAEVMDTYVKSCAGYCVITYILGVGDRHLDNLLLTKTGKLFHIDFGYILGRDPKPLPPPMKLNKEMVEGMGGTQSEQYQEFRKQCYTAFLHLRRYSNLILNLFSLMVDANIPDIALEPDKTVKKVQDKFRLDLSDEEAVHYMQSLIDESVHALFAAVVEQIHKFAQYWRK
- procedureDetails: Inhibition of Vps34 in human MCF7-LC3 cells
- Format: cell-based

querySmiles | experimentalTarget | IC50
Cc1cc(Nc2cc(Cl)nc(Oc3ccc([N+](=O)[O-])cc3)n2)n[nH]1 | Phosphatidylinositol 3-kinase catalytic subunit type 3 (Homo sapiens, UniProt Q8NEB9) | 19 nM

---

- experimentalTarget: Phosphatidylinositol 3-kinase catalytic subunit type 3 (Homo sapiens)
- procedureDetails: Inhibition of Vps34 (unknown origin) interaction with PIK3 assessed as reduction in autophagy by increasing LC3 level

molecule | IC50
COc1ccc(N(C(=O)CCl)C(C(=O)NCCc2ccccc2)c2cccs2)cc1Cl (stereo unspecified) | 0.018 µM
